Numbers sourced from ChEMBL document CHEMBL3885881.

# Species on record: Rattus norvegicus
# assay_text: DrugMatrix - Regimen: Daily Repeat
# Type: toxicity, organism-based, Sprague-Dawley
# Design: regimen Daily Repeat, gender Male, age 6-8 weeks
# cond: in vivo, po, 0 mg/kg, 72 h, tissue Plasma, route oral GAVAGE, dose level Control, time 3 day, […]

molecule	ALKALINE PHOSPHATASE, u/L
CC(=O)Nc1nnc(S(N)(=O)=O)s1 [ACETAZOLAMIDE]	322.83
CC[C@H](C)C(=O)O[C@H]1C[C@H](O)C=C2C=C[C@H](C)[C@H](CC[C@@H](O)C[C@@H](O)CC(=O)O)[C@H]21	374.17
NC[C@@H]1O[C@H](O[C@H]2[C@@H](O)[C@H](O[C@@H]3[C@@H](O)[C@H](N)C[C@H](N)[C@H]3O[C@H]3O[C@H](CN)[C@@H](O)[C@H](O)[C@H]3N)O[C@@H]2CO)[C@H](N)[C@@H](O)[C@@H]1O	317.17
CCn1cc(C(=O)O)c(=O)c2cc(F)c(N3CCNCC3)nc21	347
OCCN1CCN(CCCN2c3ccccc3Sc3ccc(C(F)(F)F)cc32)CC1	430.5
C#C[C@]1(O)CC[C@H]2[C@@H]3CCc4cc(O)ccc4[C@H]3CC[C@@]21C	347
CC(C)Cc1ccc(CC(=O)O)cc1	382.67
COc1ncnc(NS(=O)(=O)c2ccc(N)cc2)c1OC	322.83

====

# Species: Rattus norvegicus
# assay_text: DrugMatrix - Regimen: Daily Repeat
# Format: toxicity, organism-based, Sprague-Dawley
# Set-up: regimen Daily Repeat, gender Male, age 6-8 weeks
# cond: in vivo, ip, 0 mg/kg, […], tissue Blood, route intraperitoneal, dose level Control, time 14 day, vehicle 100 % SALINE
property_name: ABSOLUTE MONOCYTE (cells/µL)

mol	property_name	reported_result
NC[C@H]1O[C@H](O[C@H]2[C@H](O)[C@@H](O[C@H]3O[C@H](CO)[C@@H](O)[C@H](N)[C@H]3O)[C@H](N)C[C@@H]2N)[C@H](N)C[C@@H]1O	ABSOLUTE MONOCYTE	400

====

# Species on record: Rattus norvegicus
# assay_text: DrugMatrix - Regimen: Daily Repeat
# Type: toxicity, organism-based, Sprague-Dawley
# Design: regimen Daily Repeat, gender Male, age 6-8 weeks
# cond: in vivo, po, 0 mg/kg, 72 h, tissue Plasma, route oral GAVAGE, dose level Control, time 3 day, vehicle 100 % SALINE

compound	CHLORIDE
Oc1ccccc1O [CATECHOL]	99.67 MEQ/L
CCCc1nn(C)c2c(=O)[nH]c(-c3cc(S(=O)(=O)N4CCN(C)CC4)ccc3OCC)nc12	98.5 MEQ/L
Cc1cc(CC(=O)O)n(C)c1C(=O)c1ccc(Cl)cc1 [ZOMEPIRAC]	99.67 MEQ/L
CC(=O)OCC(CCn1cnc2cnc(N)nc21)COC(C)=O [FAMCICLOVIR]	98.5 MEQ/L

====

# Species: Rattus norvegicus
# assay_text: DrugMatrix - Regimen: Daily Repeat
# Assay type: toxicity, organism-based, Sprague-Dawley
# Parameters: regimen Daily Repeat, gender Male, age 6-8 weeks
# cond: in vivo, ip, 0 mg/kg, […], tissue Blood, route intraperitoneal, dose level Control, time 14 day, vehicle 100 % SALINE

compound	ABSOLUTE BASOPHIL / cells/µL
NC[C@H]1O[C@H](O[C@H]2[C@H](O)[C@@H](O[C@H]3O[C@H](CO)[C@@H](O)[C@H](N)[C@H]3O)[C@H](N)C[C@@H]2N)[C@H](N)C[C@@H]1O [TOBRAMYCIN]	130

====

PHOSPHORUS listing for selected molecules.
# Organism: Rattus norvegicus
# assay_text: DrugMatrix - Regimen: Daily Repeat
# Type: toxicity, organism-based, Sprague-Dawley
# Set-up: regimen Daily Repeat, gender Male, age 6-8 weeks
# cond: in vivo, po, 0 mg/kg, 120 h, tissue Plasma, route oral GAVAGE, dose level Control, time 5 day, vehicle .5 % CMC

molecule	PHOSPHORUS
C[C@@H](O)[C@H]1C(=O)N2C(C(=O)O)=C(S[C@@H]3CN[C@H](C(=O)N(C)C)C3)[C@H](C)[C@H]12	11.48 mg/dL
COc1ccccc1OCC(O)COC(N)=O (stereo not drawn)	11.87 mg/dL
CCOC(=O)[C@H](CCc1ccccc1)N[C@@H](C)C(=O)N1Cc2ccccc2C[C@H]1C(=O)O	12.3 mg/dL
CCCCC1C(=O)N(c2ccccc2)N(c2ccccc2)C1=O	12.27 mg/dL
CC(C(=O)O)c1ccc(-c2ccccc2)c(F)c1 (stereo not drawn)	11.48 mg/dL
CC[C@]1(O)CC[C@H]2[C@@H]3CCC4=CCCC[C@@H]4[C@H]3CC[C@@]21C	12.27 mg/dL
C=C(CC)C(=O)c1ccc(OCC(=O)O)c(Cl)c1Cl	9.72 mg/dL
Nc1cccc(Cl)c1	14.53 mg/dL

====

CHOLESTEROL listing for selected compounds.
# Species on record: Rattus norvegicus
# assay_text: DrugMatrix - Regimen: Daily Repeat
# Type: toxicity, organism-based, Sprague-Dawley
# Set-up: regimen Daily Repeat, gender Male, age 6-8 weeks
# cond: in vivo, po, 0 mg/kg, 120 h, tissue Plasma, route oral GAVAGE, dose level Control, time 5 day, vehicle .5 % CMC

compound	units_label	CHOLESTEROL
Cc1cnc(C(=O)NCCc2ccc(S(=O)(=O)NC(=O)NC3CCCCC3)cc2)cn1 [GLIPIZIDE]	mg/dL	71.33
CN1C(=O)CN=C(c2ccccc2)c2cc(Cl)ccc21	mg/dL	71
CC(C)(Sc1cc(C(C)(C)C)c(O)c(C(C)(C)C)c1)Sc1cc(C(C)(C)C)c(O)c(C(C)(C)C)c1	mg/dL	71.33
COc1ccc(/C=C/C(=O)Nc2ccccc2C(=O)O)cc1OC	mg/dL	71.33
C[C@@H]1CC[C@H]2[C@@H](C)C(=O)O[C@@H]3O[C@@]4(C)CC[C@@H]1[C@]32OO4	mg/dL	72.83
Nc1cccc(Cl)c1	mg/dL	73.33
C=C(CC)C(=O)c1ccc(OCC(=O)O)c(Cl)c1Cl	mg/dL	65.17
COc1ccccc1OCC(O)COC(N)=O (centres undefined)	mg/dL	72.83
C[C@@H](O)[C@H]1C(=O)N2C(C(=O)O)=C(S[C@@H]3CN[C@H](C(=O)N(C)C)C3)[C@H](C)[C@H]12	mg/dL	71.33

====

# Species on record: Rattus norvegicus
# assay_text: DrugMatrix - Regimen: Daily Repeat
# Type: toxicity, organism-based, Sprague-Dawley
# Design: regimen Daily Repeat, gender Male, age 6-8 weeks
# cond: in vivo, po, 1500 mg/kg, 72 h, tissue Plasma, route oral GAVAGE, dose level High, time 3 day, vehicle .5 % CMC
CHOLESTEROL listing for selected molecules.

molecule	CHOLESTEROL (mg/dL)
O=c1cc(-c2ccccc2)oc2ccc3ccccc3c12 [BETA-NAPHTHOFLAVONE]	122.33
C[C@@H](O)[C@H]1C(=O)N2C(C(=O)O)=C(S[C@@H]3CN[C@H](C(=O)N(C)C)C3)[C@H](C)[C@H]12 [MEROPENEM]	85.33
CC(C)(Sc1cc(C(C)(C)C)c(O)c(C(C)(C)C)c1)Sc1cc(C(C)(C)C)c(O)c(C(C)(C)C)c1 [PROBUCOL]	65.67
CCOC(=O)[C@H](CCc1ccccc1)N[C@@H](C)C(=O)N1CCC[C@H]1C(=O)O	58.33
Nc1nc2c(c(=O)[nH]1)N(C=O)C(CNc1ccc(C(=O)N[C@@H](CCC(=O)O)C(=O)O)cc1)CN2 (stereo not given in full) [LEUCOVORIN]	68.33

====

ASPARTATE AMINOTRANSFERASE listing for selected compounds.
# Species on record: Rattus norvegicus
# assay_text: DrugMatrix - Regimen: Daily Repeat
# Assay type: toxicity, organism-based, Sprague-Dawley
# Parameters: regimen Daily Repeat, gender Male, age 6-8 weeks
# cond: in vivo, po, 0 mg/kg, 72 h, tissue Plasma, route oral GAVAGE, dose level Control, time 3 day, […]
property_name: ASPARTATE AMINOTRANSFERASE (u/L)

compound	property_name	reported_result
CC(C)Cc1ccc(CC(=O)O)cc1	ASPARTATE AMINOTRANSFERASE	123.17
COc1ncnc(NS(=O)(=O)c2ccc(N)cc2)c1OC	ASPARTATE AMINOTRANSFERASE	102.67
CC(CCc1ccc(O)cc1)NCCc1ccc(O)c(O)c1 (stereo not given)	ASPARTATE AMINOTRANSFERASE	81.33
CC[C@H](C)C(=O)O[C@H]1C[C@H](O)C=C2C=C[C@H](C)[C@H](CC[C@@H](O)C[C@@H](O)CC(=O)O)[C@H]21	ASPARTATE AMINOTRANSFERASE	83.5
NC[C@@H]1O[C@H](O[C@H]2[C@@H](O)[C@H](O[C@@H]3[C@@H](O)[C@H](N)C[C@H](N)[C@H]3O[C@H]3O[C@H](CN)[C@@H](O)[C@H](O)[C@H]3N)O[C@@H]2CO)[C@H](N)[C@@H](O)[C@@H]1O	ASPARTATE AMINOTRANSFERASE	81.17
